B1: LINE1-mini (parent)
chain: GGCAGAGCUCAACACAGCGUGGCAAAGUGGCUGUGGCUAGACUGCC

Variants of: B1
protocol_details: self-cleavage, relative activity (ratio to wild type); higher = more cleavage; in vitro, sequencing; the parent is a self-cleaving ribozyme

mut	self-cleavage
A11G G19U	0.02
A14C C18A	0.05
G2A C31U	0.25
A12U A14G	0.18
A6U C37A	0.08
A6C A39G	0.1
A12U C15U	0.1
C31G A41U	0.09
G22U C37U	0.05
C3G C42A	0.28
G5U C45A	0.08
G29A U43G	0.04
C3U C18U	0.42
C3U U28G	0.23
G27A U43A	0.08
G29A U34A	0.19
A6C C46A	0.5
C8A C45G	0.28
G29C G33A	0.12
G5C U34A	0.06
U9C C37A	0.02
G2A U20G	0.36
A4G U34C	0.12
A12U U32C	0.07
G44A C45A	0.07
A16U U38G	0.02
A26U G35A	0.24
U20G A24C	0.28
G5A G7U	0.26
C10U U38A	0.04
A12U C18G	0.17
U9G G40A	0.08
U20C G35U	0.1
A11U U38C	0.05
A25U G29C	0.38
